- assayProtocol: Kinetic assay of purified DAOCS with penicillin G (standard penicillin G assay, HPLC of cephalosporin G)
- Format: biochemical
- experimentalConditions: for penicillin G; 20 μg purified DAOCS, 1 mM α-ketoglutarate, 30° C.
measure: kcat (S^−1)
Report the value in S^−1 with no unit label.

Recorded kcat, per entry:
YS110: mutated penicillin expandase (DAOCS) with substitution Y184H (protein, UniProt P18548 1-311, looked up, variant Y184H) Deacetoxycephalosporin C …: MDTTVPTFSLAELQQGLHQDEFRRCLRDKGLFYLTDCGLTDTELKSAKDLVIDFFEHGSEAEKRAVTSPVPTMRRGFTGLESESTAQITNTGSYSDYSMCYSMGTADNLFPSGDFERIWTQYFDRQYTASRAVAREVLRATGTEPDGGVEAFLDCEPLLRFRYFPQVPEHRSAEEQPLRMAPHHDLSMVTLIQQTPCANGFVSLQAEVGGAFTDLPYRPDAVLVFCGAIATLVTGGQVKAPRHHVAAPRRDQIAGSSRTSSVFFLRPNADFTFSVPLARECGFDVSLDGETATFQDWIGGNYVNIRRTSKA = 0.0798
YS11: mutated penicillin expandase (DAOCS) with substitution I305M (protein, UniProt P18548 1-311, looked up, variant I305M) Deacetoxycephalosporin C …: MDTTVPTFSLAELQQGLHQDEFRRCLRDKGLFYLTDCGLTDTELKSAKDLVIDFFEHGSEAEKRAVTSPVPTMRRGFTGLESESTAQITNTGSYSDYSMCYSMGTADNLFPSGDFERIWTQYFDRQYTASRAVAREVLRATGTEPDGGVEAFLDCEPLLRFRYFPQVPEHRSAEEQPLRMAPHYDLSMVTLIQQTPCANGFVSLQAEVGGAFTDLPYRPDAVLVFCGAIATLVTGGQVKAPRHHVAAPRRDQIAGSSRTSSVFFLRPNADFTFSVPLARECGFDVSLDGETATFQDWIGGNYVNMRRTSKA = 0.1452

Okay, next one:
Problem: Tell me measured kcat for YS12: mutated penicillin expandase (DAOCS) with substitution N304K (protein, UniProt P18548 1-311, looked up, variant N304K) Deacetoxycephalosporin C …: MDTTVPTFSLAELQQGLHQDEFRRCLRDKGLFYLTDCGLTDTELKSAKDLVIDFFEHGSEAEKRAVTSPVPTMRRGFTGLESESTAQITNTGSYSDYSMCYSMGTADNLFPSGDFERIWTQYFDRQYTASRAVAREVLRATGTEPDGGVEAFLDCEPLLRFRYFPQVPEHRSAEEQPLRMAPHYDLSMVTLIQQTPCANGFVSLQAEVGGAFTDLPYRPDAVLVFCGAIATLVTGGQVKAPRHHVAAPRRDQIAGSSRTSSVFFLRPNADFTFSVPLARECGFDVSLDGETATFQDWIGGNYVKIRRTSKA please.
Result: 0.0564
